ASSAY_EXPLANATION: qHTS Assay for Lipid Storage Modulators (AID 1519); also: % is scaled to controls: 0 for no effect and ±100 for the full control effect
TEST_CONTEXT: Drosophila S3 cells, BODIPY lipid droplet/cell ratio, laser cytometry; at 57.5 µM (top of the series); cells loaded with oleic acid
Results filed as inconclusive are left out. Activity calls are given as the source filed them. Calls follow the shape of the full dose curve.
Reported activity change, negative = inhibition by item:

// solved cases for activity change, negative = inhibition follow
MOLECULE | REPORTED_METRIC | RESULT
ClC(Cl)=C(c1ccc(Cl)cc1)c1ccc(Cl)cc1 | activity change, negative = inhibition | 9.37% (inactive)
CCCN1CCC[C@@H]2Cc3n[nH]cc3C[C@H]21 | activity change, negative = inhibition | 3.49% (inactive)
CC(C)CN1CCC2(CC1)CCN(S(C)(=O)=O)CC2 | activity change, negative = inhibition | -1.49% (inactive)
CNCC[C@@H](Oc1ccc(C(F)(F)F)cc1)c1ccccc1 | activity change, negative = inhibition | 1.23% (inactive)
N#Cc1ccc(CN2CC3(CCNCC3)C2)cc1 | activity change, negative = inhibition | -3.34% (inactive)
COC1CC(OC2CC[C@@]3(C=O)C4CC[C@]5(C)C(C6=CC(=O)OC6)CC[C@@]5(O)C4CC[C@]3(O)C2)OC(C)C1O (stereo not given in full) | activity change, negative = inhibition | 0.995% (inactive)
CCN1C[C@@]2(COC(=O)c3ccccc3N3C(=O)CC(C)C3=O)CC[C@H](OC)[C@]34C5C[C@@H]6[C@@H](OC)C[C@@](O)(C5[C@H]6OC)[C@@](O)(C13)[C@@H](OC)C24 (stereo not given in full) | activity change, negative = inhibition | 4.09% (inactive)
c1ccc(N2CC3(CCNCC3)C2)cc1 | activity change, negative = inhibition | 3.32% (inactive)
CNC(C)C(O)c1ccccc1 (stereo not given) | activity change, negative = inhibition | 8.05% (inactive)

Identify measured activity change, negative = inhibition corresponding to O=c1cccc2n1CC1CC2CN(CCO)C1 (stereo not given) 3.63% (inactive)

----------
TARGET_SYSTEM: Ubiquitin carboxyl-terminal hydrolase 1 (Homo sapiens)
ASSAY_EXPLANATION: Inhibitors of USP1/UAF1: Pilot qHTS (AID 504865);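 also: rhodamine fluorescence freed from ubiquitin-rhodamine substrate followed over time; top concentration of the series differs between compounds; % is scaled to controls: 0 for no effect and ±100 for the full control effect; nearly all actives have a fitted effect of over 35% in size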
TEST_CONTEXT: purified USP1/UAF1, Ub-rhodamine cleavage fluorescence; series mostly up to 114 µM
Results filed as inconclusive are left out. Calls of active or inactive are those of the source. Calls come from the whole dose curve; as a rule, active = well fitted inhibition curve with a large enough effect; inconclusive = small, poorly fitted or top-dose-only effect; inactive = flat fitted curve, though single readings scatter.
Result category, one only: yes (1) (active), no (0) (inactive)

COMPOUND | CLASS_NAME
CN[C@@H](C)[C@H]1CC[C@@H](N)[C@@H](O[C@@H]2[C@@H](O)[C@@H](O[C@H]3OC[C@@](C)(O)[C@@H](NC)[C@@H]3O)[C@H](N)C[C@@H]2N)O1 (tested in a mixture with another compound) | no (0)

Look up the recorded call for N#C/C(=C\c1cccc(O)c1)C(=O)O in this test. no (0)

Can you look up the reported call for COc1ccc(/C=C/c2cc(O)cc(O)c2)cc1 for me? no (0)

----------
TARGET_SYSTEM: Rap guanine nucleotide exchange factor 4 (Homo sapiens) (UniProt Q8WZA2)
Sequence (Q8WZA2 whole entry, looked up): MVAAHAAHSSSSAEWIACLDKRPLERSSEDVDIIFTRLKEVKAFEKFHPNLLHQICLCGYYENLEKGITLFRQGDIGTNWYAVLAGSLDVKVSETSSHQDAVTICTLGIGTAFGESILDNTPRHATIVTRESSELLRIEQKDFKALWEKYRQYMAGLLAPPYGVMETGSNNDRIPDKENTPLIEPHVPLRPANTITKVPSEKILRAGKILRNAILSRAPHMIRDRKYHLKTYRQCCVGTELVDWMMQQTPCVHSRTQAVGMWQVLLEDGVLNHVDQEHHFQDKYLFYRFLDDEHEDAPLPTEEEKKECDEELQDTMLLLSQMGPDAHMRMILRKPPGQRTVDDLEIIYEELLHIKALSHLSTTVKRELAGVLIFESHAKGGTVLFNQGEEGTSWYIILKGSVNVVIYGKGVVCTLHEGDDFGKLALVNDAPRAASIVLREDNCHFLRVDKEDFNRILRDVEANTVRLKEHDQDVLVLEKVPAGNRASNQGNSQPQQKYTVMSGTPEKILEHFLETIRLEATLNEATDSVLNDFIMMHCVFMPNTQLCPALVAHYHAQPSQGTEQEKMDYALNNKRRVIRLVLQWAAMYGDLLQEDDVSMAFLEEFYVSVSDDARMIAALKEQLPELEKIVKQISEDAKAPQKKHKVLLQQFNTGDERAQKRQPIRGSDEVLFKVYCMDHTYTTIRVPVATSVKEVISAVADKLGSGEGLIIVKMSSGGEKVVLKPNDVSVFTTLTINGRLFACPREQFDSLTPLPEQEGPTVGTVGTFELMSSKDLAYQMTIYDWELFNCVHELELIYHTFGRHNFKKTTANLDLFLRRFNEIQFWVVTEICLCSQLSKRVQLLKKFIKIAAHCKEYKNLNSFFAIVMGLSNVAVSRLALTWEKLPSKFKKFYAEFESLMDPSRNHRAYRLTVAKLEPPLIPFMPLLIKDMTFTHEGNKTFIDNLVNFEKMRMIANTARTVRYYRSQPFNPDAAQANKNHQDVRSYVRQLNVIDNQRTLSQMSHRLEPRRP
ASSAY_EXPLANATION: Confirmatory qHTS for antagonist of cAMP-regulated guanine nucleotide exchange factor 4 (EPAC2) (AID 1645885); also: nearly all actives have a fitted effect of over 25% in size; as to activity change, negative = inhibition: % is scaled to controls: 0 for no effect and ±100 for the full control effect
TEST_CONTEXT: EPAC2 Rap1B-BODIPY-GDP exchange fluorescence, biochemical; series mostly up to 114 µM
Inconclusive results are not listed. Calls of active or inactive are those of the source. Calls come from the whole dose curve; as a rule, active = well fitted inhibition curve with a large enough effect; inconclusive = small, poorly fitted or top-dose-only effect; inactive = no such curve, though single readings can be large or run the other way.
REPORTED_METRIC: activity change, negative = inhibition

See these solved cases before continuing.
COMPOUND | TARGET_SYSTEM | activity change, negative = inhibition
Cn1cccc1/C=C1\C(=O)NC(=O)N(Cc2ccccc2Cl)C1=O | Rap guanine nucleotide exchange factor 4 (Homo sapiens) (UniProt Q8WZA2) | inactive
CCOC(=O)[C@]12Cc3ccc(C)cc3[C@H]1N(C1CCCCC1)C(=O)c1cc(OC)ccc12 | Rap guanine nucleotide exchange factor 4 (Homo sapiens) (UniProt Q8WZA2) | inactive
O=[N+]([O-])c1ccc(NCc2ccccc2)c2nonc12 | Rap guanine nucleotide exchange factor 4 (Homo sapiens) (UniProt Q8WZA2) | inactive
CCOC(=O)c1cc(CC)sc1/N=C/C1C(=O)NC(=S)NC1=O | Rap guanine nucleotide exchange factor 4 (Homo sapiens) (UniProt Q8WZA2) | -21.4% [at 12.7 µM] (inactive)
O=C1NC(=S)N(c2ccccc2)C(=O)/C1=C/c1ccco1 | Rap guanine nucleotide exchange factor 4 (Homo sapiens) (UniProt Q8WZA2) | inactive

Report activity change, negative = inhibition for O=C1NC(=S)NC(=O)C1=Cc1cccn1-c1ccc(O)cc1 -7.44% [at 12.7 µM] (inactive)
